Test system: Trichinella spiralis
ASSAY_OVERVIEW: Antitrichinellosis activity against Trichinella spiralis larvae at 50 ug/ml after 24 hrs by Campbell's method
Format: functional
PROPERTY_MEASURED: Efficacy (%)

• CCCn1c(Nc2nc3ccccc3n2CC)nc2ccccc21 = 42
• CCCn1c(Nc2nc3ccccc3n2C)nc2ccccc21 = 33.3
• Cn1c(Nc2nc3ccccc3n2C)nc2ccccc21 = 8.8
• CCn1c(Nc2nc3ccccc3n2CC)nc2ccccc21 = 45.8
• CCn1c(Nc2nc3ccccc3[nH]2)nc2ccccc21 = 15.7
• CCCSc1ccc2[nH]c(NC(=O)OC)nc2c1 = 10.6
• CCCn1c(Nc2nc3ccccc3[nH]2)nc2ccccc21 = 12
• CCn1c(Nc2nc3ccccc3n2C)nc2ccccc21 = 35.3
• Cn1c(Nc2nc3ccccc3[nH]2)nc2ccccc21 = 9.1
• CCCn1c(Nc2nc3ccccc3n2CCC)nc2ccccc21 = 45.9
